system_under_test: Ad5D24 oncolytic adenovirus (viral particle, capsid) (human adenovirus serotype 5) (UniProt P04133)
Sequence (P04133 whole entry, looked up): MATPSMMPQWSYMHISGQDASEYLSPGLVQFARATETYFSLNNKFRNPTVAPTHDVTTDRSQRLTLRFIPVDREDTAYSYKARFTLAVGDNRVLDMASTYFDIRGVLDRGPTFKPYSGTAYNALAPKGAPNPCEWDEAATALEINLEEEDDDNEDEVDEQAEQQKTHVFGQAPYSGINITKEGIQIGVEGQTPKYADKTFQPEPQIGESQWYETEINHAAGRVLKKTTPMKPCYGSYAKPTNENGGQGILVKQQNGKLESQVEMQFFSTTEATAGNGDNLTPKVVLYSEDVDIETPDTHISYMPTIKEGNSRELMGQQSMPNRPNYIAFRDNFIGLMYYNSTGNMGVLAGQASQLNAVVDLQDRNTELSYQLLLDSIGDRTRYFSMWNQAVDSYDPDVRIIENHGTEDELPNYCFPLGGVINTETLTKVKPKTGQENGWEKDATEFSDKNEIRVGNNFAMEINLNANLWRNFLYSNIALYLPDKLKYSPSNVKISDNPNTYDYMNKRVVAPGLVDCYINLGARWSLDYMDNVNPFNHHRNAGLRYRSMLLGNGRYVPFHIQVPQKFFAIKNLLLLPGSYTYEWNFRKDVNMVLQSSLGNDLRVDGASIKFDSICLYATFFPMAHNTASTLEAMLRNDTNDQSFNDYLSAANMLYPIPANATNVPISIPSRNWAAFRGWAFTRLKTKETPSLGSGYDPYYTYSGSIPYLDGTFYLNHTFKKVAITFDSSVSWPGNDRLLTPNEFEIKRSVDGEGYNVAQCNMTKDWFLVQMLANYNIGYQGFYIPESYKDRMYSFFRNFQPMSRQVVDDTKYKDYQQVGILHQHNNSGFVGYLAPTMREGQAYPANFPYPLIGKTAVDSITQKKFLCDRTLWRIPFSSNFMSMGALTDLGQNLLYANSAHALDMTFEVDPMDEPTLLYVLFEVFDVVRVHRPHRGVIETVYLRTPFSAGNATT
assay_details: SPR
parameter_measured: pKd
Notebook: values listed as pKd are -log10 of the concentration (mol/L).

What value of pKd has been reported for the following substance? polyK-SIINFEKL (peptide) 5.54

// data source = paper PMC4839367
